System: HepG2 cells
Test: MTT anti-proliferative assay, HepG2
Format: cell-based, human
Conditions: Homo sapiens, HepG2, 48 h, read-out: IC50 HepG2
pIC50: −log10 of the molar value.
So basically: pIC50 at 5 or higher? That is t. Lower than 5? That is f.

molecule | targetUnderTest | discreteLabel
O=C(CSc1nnc(-c2n[nH]c(=O)c3ccccc23)o1)Nc1ccc(Cl)cc1 [Compound 4d] | HepG2 cells | f
O=c1c2ccccc2c(-c2nnc(SCNc3ccccc3Cl)o2)nn1CNc1ccccc1Cl [Compound 7c] | HepG2 cells | f
COc1ccc(NCSc2nnc(-c3nn(CNc4ccc(OC)cc4)c(=O)c4ccccc34)o2)cc1 [Compound 7d] | HepG2 cells | t
CCSc1nnc(-c2n[nH]c(=O)c3ccccc23)o1 [Compound 2a] | HepG2 cells | f
O=c1[nH]nc(-c2nnc(SCc3ccccc3)o2)c2ccccc12 [Compound 2b] | HepG2 cells | f
O=c1c2ccccc2c(-c2nnc(SCNc3cccnc3)o2)nn1CNc1cccnc1 [Compound 7f] | HepG2 cells | f
COc1cccc2c1C(=O)c1c(O)c3c(c(O)c1C2=O)C[C@@](O)(C(=O)CO)C[C@@H]3O[C@H]1C[C@H](N)[C@H](O)[C@H](C)O1 [DOX, Doxorubicin, reference compound] | HepG2 cells | t
Cc1ccc(NC(=O)CSc2nnc(-c3n[nH]c(=O)c4ccccc34)o2)cc1 [Compound 4c] | HepG2 cells | f
